Where these numbers come from: patent US20240343803A1

Target: T1, human PVRIG-his (AcroBiosystems, Cat NO. PVG-H52H4) (human, UniProt Q6DKI7 41-171, limits assumed)
T1 construct: also called human PVRIG protein
T1 sequence (looked up): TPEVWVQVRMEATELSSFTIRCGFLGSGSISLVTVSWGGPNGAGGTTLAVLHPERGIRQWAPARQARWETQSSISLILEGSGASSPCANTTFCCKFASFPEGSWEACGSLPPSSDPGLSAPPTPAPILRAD
Experiment: competition ELISA, PVRIG-His coated, competitor human PVRL2-mFc
Measured IC50, listed per entry for reference.
measure: IC50 (nM)

{"columns": ["binder", "reported"],
 "data": [
  ["PVRIG-A30 (Fc fusion, heavy chain antibody VHH-hinge-CH2-CH3, human IgG1 constant part; not shown: human IgG1 hinge-CH2-CH3) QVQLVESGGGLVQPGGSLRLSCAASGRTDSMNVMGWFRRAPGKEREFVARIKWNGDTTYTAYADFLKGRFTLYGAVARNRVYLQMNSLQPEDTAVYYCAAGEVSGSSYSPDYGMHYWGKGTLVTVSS", 0.255],
  ["PVRIG-A35 (Fc fusion, heavy chain antibody VHH-hinge-CH2-CH3, human IgG1 constant part; not shown: human IgG1 hinge-CH2-CH3) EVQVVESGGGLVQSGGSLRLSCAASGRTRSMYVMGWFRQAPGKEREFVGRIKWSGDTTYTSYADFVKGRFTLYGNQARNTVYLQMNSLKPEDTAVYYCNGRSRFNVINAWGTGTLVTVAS", 0.0543],
  ["PVRIG-A15 (Fc fusion, heavy chain antibody VHH-hinge-CH2-CH3, human IgG1 constant part; not shown: human IgG1 hinge-CH2-CH3) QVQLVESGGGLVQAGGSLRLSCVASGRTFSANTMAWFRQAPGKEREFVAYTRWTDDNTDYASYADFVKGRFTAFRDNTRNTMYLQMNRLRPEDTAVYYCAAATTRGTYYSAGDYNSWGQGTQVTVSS", 0.208],
  ["PVRIG-A104 (Fc fusion, heavy chain antibody VHH-hinge-CH2-CH3, human IgG1 constant part; not shown: human IgG1 hinge-CH2-CH3) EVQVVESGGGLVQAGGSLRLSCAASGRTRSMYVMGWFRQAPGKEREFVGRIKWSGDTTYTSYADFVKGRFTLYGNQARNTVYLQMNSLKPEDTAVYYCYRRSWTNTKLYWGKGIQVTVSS", 0.0659],
  ["PVRIG-A113 (Fc fusion, heavy chain antibody VHH-hinge-CH2-CH3, human IgG1 constant part; not shown: human IgG1 hinge-CH2-CH3) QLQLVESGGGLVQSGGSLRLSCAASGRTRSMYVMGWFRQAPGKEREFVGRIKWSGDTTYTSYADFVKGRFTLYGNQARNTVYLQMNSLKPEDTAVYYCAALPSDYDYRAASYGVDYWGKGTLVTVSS", 0.092],
  ["PVRIG-A117 (Fc fusion, heavy chain antibody VHH-hinge-CH2-CH3, human IgG1 constant part; not shown: human IgG1 hinge-CH2-CH3) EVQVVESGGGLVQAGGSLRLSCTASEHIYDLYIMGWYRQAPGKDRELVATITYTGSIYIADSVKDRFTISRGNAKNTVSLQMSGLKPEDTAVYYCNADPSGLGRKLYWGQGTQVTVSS", 0.0528],
  ["PVRIG-A75 (Fc fusion, heavy chain antibody VHH-hinge-CH2-CH3, human IgG1 constant part; not shown: human IgG1 hinge-CH2-CH3) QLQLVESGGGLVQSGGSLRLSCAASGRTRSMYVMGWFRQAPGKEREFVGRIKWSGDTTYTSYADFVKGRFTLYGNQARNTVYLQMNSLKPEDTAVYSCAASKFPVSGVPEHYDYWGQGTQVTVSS", 0.0621],
  ["PVRIG-A118 (Fc fusion, heavy chain antibody VHH-hinge-CH2-CH3, human IgG1 constant part; not shown: human IgG1 hinge-CH2-CH3) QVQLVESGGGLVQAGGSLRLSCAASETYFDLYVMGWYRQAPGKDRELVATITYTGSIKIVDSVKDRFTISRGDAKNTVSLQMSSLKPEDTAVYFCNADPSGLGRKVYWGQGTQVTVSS", 0.0513],
  ["PVRIG-A50 (Fc fusion, heavy chain antibody VHH-hinge-CH2-CH3, human IgG1 constant part; also called PVRIG-50; not shown: human IgG1 hinge-CH2-CH3) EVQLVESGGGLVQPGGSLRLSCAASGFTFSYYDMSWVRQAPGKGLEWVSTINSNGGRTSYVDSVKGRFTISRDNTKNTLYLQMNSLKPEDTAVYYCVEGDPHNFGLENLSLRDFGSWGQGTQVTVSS", 0.196],
  ["PVRIG-A105 (Fc fusion, heavy chain antibody VHH-hinge-CH2-CH3, human IgG1 constant part; not shown: human IgG1 hinge-CH2-CH3) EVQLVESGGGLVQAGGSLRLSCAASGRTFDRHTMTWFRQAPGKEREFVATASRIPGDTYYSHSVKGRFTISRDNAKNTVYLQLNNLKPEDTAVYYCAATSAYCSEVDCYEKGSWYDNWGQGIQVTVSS", 0.0571],
  ["PVRIG-A60 (Fc fusion, heavy chain antibody VHH-hinge-CH2-CH3, human IgG1 constant part; not shown: human IgG1 hinge-CH2-CH3) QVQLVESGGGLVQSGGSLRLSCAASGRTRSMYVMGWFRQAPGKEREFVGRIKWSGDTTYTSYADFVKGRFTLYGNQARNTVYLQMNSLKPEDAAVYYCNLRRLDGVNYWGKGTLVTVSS", 0.0557],
  ["PVRIG-A43 (Fc fusion, heavy chain antibody VHH-hinge-CH2-CH3, human IgG1 constant part; not shown: human IgG1 hinge-CH2-CH3) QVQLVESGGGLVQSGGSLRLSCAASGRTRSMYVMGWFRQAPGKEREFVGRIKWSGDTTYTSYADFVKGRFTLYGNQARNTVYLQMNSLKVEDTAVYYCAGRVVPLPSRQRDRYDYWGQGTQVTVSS", 0.0537]
]}
